System: HepG2
Experiment: In vitro inhibition of cholesterol biosynthesis in Hep G2 cells
Format: functional, Homo sapiens
Set-up: concentration or dose not given beside the values
Categorize each record by its Inhibition using low interval = under 40%, middle interval = from 40% up to 60%, high interval = 60% and over

[[record]]
compound = "CC(C)=CCC/C(C)=C/CC/C(C)=C/CCC1(C)CCc2c(cc(C)c(O)c2C)O1 (stereo unspecified)"
experimentaltarget = "HepG2"
group = "middle interval"


# ---- query compound ----
Just checking, what class would you give CC(C)=CCC/C(C)=C/CC/C=C/CCC1(C)CCc2cc(O)c(C)c(C)c2O1 (stereo unspecified) here?
high interval

###

Listing of entries alongside the reported inhibition.
Molecular target: UniProt:P04035
Sequence (P04035 whole entry): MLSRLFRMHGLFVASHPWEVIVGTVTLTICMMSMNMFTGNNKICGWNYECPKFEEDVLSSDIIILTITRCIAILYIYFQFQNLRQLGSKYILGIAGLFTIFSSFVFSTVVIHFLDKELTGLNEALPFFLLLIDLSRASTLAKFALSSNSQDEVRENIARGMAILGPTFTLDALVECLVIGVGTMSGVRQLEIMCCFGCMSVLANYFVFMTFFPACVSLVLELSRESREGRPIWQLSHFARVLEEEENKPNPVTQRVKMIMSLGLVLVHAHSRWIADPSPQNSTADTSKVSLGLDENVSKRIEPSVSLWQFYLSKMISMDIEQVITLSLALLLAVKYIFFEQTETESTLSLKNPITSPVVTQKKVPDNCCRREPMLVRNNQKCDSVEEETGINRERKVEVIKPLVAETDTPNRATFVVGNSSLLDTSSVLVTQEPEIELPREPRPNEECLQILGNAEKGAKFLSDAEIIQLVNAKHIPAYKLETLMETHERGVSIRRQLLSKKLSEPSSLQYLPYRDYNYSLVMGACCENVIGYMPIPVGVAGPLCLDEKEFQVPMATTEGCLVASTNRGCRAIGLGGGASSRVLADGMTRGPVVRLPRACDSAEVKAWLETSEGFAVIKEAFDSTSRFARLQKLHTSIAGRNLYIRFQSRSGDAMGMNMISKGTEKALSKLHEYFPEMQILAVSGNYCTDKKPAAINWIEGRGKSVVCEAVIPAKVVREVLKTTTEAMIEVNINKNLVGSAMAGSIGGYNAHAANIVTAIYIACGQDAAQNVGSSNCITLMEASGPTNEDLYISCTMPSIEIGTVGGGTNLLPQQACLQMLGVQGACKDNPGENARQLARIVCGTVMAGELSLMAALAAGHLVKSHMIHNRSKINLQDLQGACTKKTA
Assay: In vitro suppression of HMG-CoA reductase (HMGR) in Hep G2 cells
Format: cell-based
Set-up: concentration or dose not given beside the values
Conditions: HepG2, concentration not given here
Give just the numeric value; % need not be written.

Example results:
[[record]]
molecule = "CC(C)=CCC/C(C)=C/CC/C=C\\CCC1(C)CCc2cc(O)c(C)c(C)c2O1 (stereo not drawn)"
unitstext = "%"
testvalue = 45

[[record]]
molecule = "CC(C)=CCC/C(C)=C/CC/C(C)=C/CCC1CCc2cc(O)c(C)c(C)c2O1 (stereo not drawn)"
unitstext = "%"
testvalue = 67


Consider now this further molecule.
For CC(C)=CCC/C(C)=C/CC/C(C)=C/CCC1(C)CCc2cc(O)ccc2O1 (stereo not drawn) , write its inhibition.
53

###

Species: Gallus gallus
Assay: Hypocholesterolemic activity in 6-week old male mormocholesterolemic chickens using experiment 3
Type: functional
Listing of entries alongside the reported Total cholesterol.
Give just the numeric value; mg 100ml-1 need not be written.

Example results:
[[record]]
compound = "CC(C)=CCC/C(C)=C/CC/C(C)=C/CCC1CCc2cc(O)c(C)c(C)c2O1 (stereo unspecified)"
testvalue = 197

[[record]]
compound = "CC(C)=CCC/C(C)=C/CC/C(C)=C/CCC1(C)CCc2cc(O)c(C)c(C)c2O1 (stereo unspecified)"
testvalue = 151

[[record]]
compound = "CC(C)=CCC/C(C)=C/CC/C(C)=C/CCC1(C)CCc2cc(O)c3ccccc3c2O1 (stereo unspecified)"
testvalue = 160

[[record]]
compound = "CC(C)=CCC/C(C)=C/CC/C(C)=C/CCC1(C)CCc2cc(O)cc(C#N)c2O1 (stereo unspecified)"
testvalue = 151

[[record]]
compound = "CC(C)=CCC/C(C)=C/CC/C(C)=C/CCC1CCc2cc(O)ccc2C1 (stereo unspecified)"
testvalue = 152


Consider now this further compound.
For CC(C)=CCC/C(C)=C/CC/C(C)=C/CCC1(C)CCc2cc(O)cc(Br)c2O1 (stereo unspecified) , write its Total cholesterol.
139

###

Assay: Compound oxidation potential using cyclic voltametry
Type: ADME
assayEndpoint: Potential

Example results:
[[record]]
molecule = "CC(C)=CCC/C(C)=C/CC/C(C)=C/CCC1(C)CCc2cc(O)c3ccccc3c2O1 (stereo unspecified)"
testvalue = 0.8

[[record]]
molecule = "CC(C)=CCC/C(C)=C/CC/C(C)=C/CCC1(C)CCc2c(O)cccc2O1 (stereo unspecified)"
testvalue = 1.27

[[record]]
molecule = "CC(C)=CCC/C(C)=C/CC/C(C)=C/CCC1(C)CCc2c(C)c(O)cc(C)c2O1 (stereo unspecified)"
testvalue = 1.05


Consider now this further molecule.
For CC(C)=CCC/C(C)=C/CC/C(C)=C/CCC1(C)CCc2cc(O)ccc2O1 (stereo unspecified) , write its Potential.
1.05
